Numbers sourced from patent US5981558A.

# Test system: Sarcoma 180 mouse solid tumor
# Assay Info: Antitumor activity against Sarcoma 180 mouse solid tumor
# Type: in vivo, mouse (ddY)
# Condition Details: Sarcoma-180, iv, 168 h, read-out: T/C (tumor volume ratio treated/control)
Value Kind: response vs control in vivo at 8 mg/kg (%)

# Compound, Result Units, Quantitative Result
measured = [
    ("C/C1=C\\C(OC2CCCCO2)C(=O)/C=C/C=C\\c2csc(n2)C(C)N2C(=O)CC(C(C)(O)C(=O)SCOC(=O)CCNC(=O)[C@H]3O[C@@H]4OC(C)(C)O[C@@H]4[C@H]4OC(C)(C)O[C@H]43)(CC1)[S+]2[O-] (stereo partly drawn)", "%", 45),
    ("COCCOCCOCCOC(=O)OCSC(=O)C(C)(O)C12CC/C(C)=C/C(O)C(=O)/C=C/C=C\\c3csc(n3)C(C)N(C(=O)C1)[S+]2[O-] (stereo not drawn)", "%", 42),
    ("COCCOCCOCCOCCOCCOCC(=O)OCSC(=O)C(C)(O)C12CC/C(C)=C/C(O)C(=O)/C=C/C=C\\c3csc(n3)C(C)N(C(=O)C1)[S+]2[O-] (stereo not drawn)", "%", 36),
]
